System: 292921-168-R tumor spheroid viability
Experiment: Anticancer human tumor 292921-168-R patient-derived pancreatic carcinoma cell line growth inhibition
Settings: curve of first compound; second compound 0.3 µM; spheroids with HUVEC and MSC
measure name: IC50

Recorded results for 4 molecules are shown here.
molecule	IC50
CNCc1ccc(-c2cc(-c3nc(-c4ccc(S(=O)(=O)C(C)C)cc4)cnc3N)on2)cc1 + CC[C@@]1(O)C(=O)OCc2c1cc1n(c2=O)Cc2cc3c(CN(C)C)c(O)ccc3nc2-1	< 9.49 nM
Cc1cc(C)c(CNC(=O)c2cc(-c3ccc(CN4CCOCC4)cc3)cc3c2cnn3C2CCCC2)c(=O)[nH]1 + CC[C@@]1(O)C(=O)OCc2c1cc1n(c2=O)Cc2cc3c(CN(C)C)c(O)ccc3nc2-1	< 31.6 nM
COc1ccc([C@@H](O)c2cc(-c3ncnc4cc(N5CCOCC5)ccc34)c(F)cc2Cl)nn1 + CC[C@@]1(O)C(=O)OCc2c1cc1n(c2=O)Cc2cc3c(CN(C)C)c(O)ccc3nc2-1	< 31.6 nM
Cc1sc2c(c1C)C(c1ccc(Cl)cc1)=NC(CC(=O)Nc1ccc(O)cc1)c1nnc(C)n1-2 (stereo not given) + CC[C@@]1(O)C(=O)OCc2c1cc1n(c2=O)Cc2cc3c(CN(C)C)c(O)ccc3nc2-1	< 9.49 nM

Then there is this molecule:
QUERY: Value lookup for IC50; key = Cn1ncnc1[C@H]1c2n[nH]c(=O)c3cc(F)cc(c23)N[C@@H]1c1ccc(F)cc1 + CC[C@@]1(O)C(=O)OCc2c1cc1n(c2=O)Cc2cc3c(CN(C)C)c(O)ccc3nc2-1
RESULT: < 9.49 nM

* * *

Tested on: 292921-168-R tumor spheroid viability
Assay: Anticancer human tumor 292921-168-R cell line growth inhibition; active means viability on the fitted dose curve at most 10% of control; inactive means the rest;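 also: spheroids exposed to compounds for 7 days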
Details: second compound 0.0003 µM; first compound 0.316 µM; spheroids with HUVEC and MSC
Experimental: Multicellular complex tumor spheroid response to DNA repair inhibitors in combination with DNA-damaging drugs This study explores the anticancer activities of DNA-damaging drugs and inhibitors of DNA damage repair, both as single agents and in combinations. […] Twenty-six patient-derived or established malignant cell lines were evaluated representing sarcoma, melanoma, small cell lung cancer (SCLC), non-small cell lung cancer (NSCLC), as well as bladder, ovarian and pancreatic cancers. […]
Hello, when you answer, please use one of the following outcomes: active, inactive

Answered cases to consult:
compound	class assignment
CC(C)n1c(=O)n(C)c2cnc3cc(F)c(-c4ccc(OCCCN5CCCCC5)nc4)cc3c21 + COc1cc2c(cc1O)CCNC21CSC2c3c(OC(C)=O)c(C)c4c(c3C(COC1=O)N1C(O)C3Cc5cc(C)c(OC)c(O)c5C(C21)N3C)OCO4	inactive
CC1COCCN1c1cc(-c2ccnn2C)c2ccnc(-c3ccn[nH]3)c2n1 (stereo unspecified) + COc1cc2c(cc1O)CCNC21CSC2c3c(OC(C)=O)c(C)c4c(c3C(COC1=O)N1C(O)C3Cc5cc(C)c(OC)c(O)c5C(C21)N3C)OCO4	active
Cc1cc(C)c(CNC(=O)c2cc(-c3ccc(CN4CCOCC4)cc3)cc3c2cnn3C2CCCC2)c(=O)[nH]1 + COc1cc2c(cc1O)CCNC21CSC2c3c(OC(C)=O)c(C)c4c(c3C(COC1=O)N1C(O)C3Cc5cc(C)c(OC)c(O)c5C(C21)N3C)OCO4	inactive

QUERY: Could you please tell me the result logged for COc1cc(C)[nH]c(=O)c1CN1CCc2c(Cl)cc(C(OC)C3COC3)c(Cl)c2C1=O (stereo unspecified) + COc1cc2c(cc1O)CCNC21CSC2c3c(OC(C)=O)c(C)c4c(c3C(COC1=O)N1C(O)C3Cc5cc(C)c(OC)c(O)c5C(C21)N3C)OCO4 in this assay?
RESULT: inactive

QUERY: Tell me the recorded outcome of this test for COc1ccc([C@@H](O)c2cc(-c3ncnc4cc(N5CCOCC5)ccc34)c(F)cc2Cl)nn1 + COc1cc2c(cc1O)CCNC21CSC2c3c(OC(C)=O)c(C)c4c(c3C(COC1=O)N1C(O)C3Cc5cc(C)c(OC)c(O)c5C(C21)N3C)OCO4 .
RESULT: inactive

QUERY: Could you check what this test reported for [2H]c1nc(C)nc([2H])c1-c1cc(NC[C@@H](C)c2cccc3c(C(=O)NC)ccnc23)ncn1 + COc1cc2c(cc1O)CCNC21CSC2c3c(OC(C)=O)c(C)c4c(c3C(COC1=O)N1C(O)C3Cc5cc(C)c(OC)c(O)c5C(C21)N3C)OCO4 ?
RESULT: inactive
